test system: HIV-1 (CEM cells chronically infected with HIV-1); test: Anti-retroviral activity in CEM cells chronically infected with HIV-1, soluble formazan assay; format: cell-based; conditions: Human immunodeficiency virus 1, CCRF-CEM, Example 13; CEM cells
metricName: pEC50
Quick note: pEC50 values are minus log10 of concentrations in mol/L.

What value of pEC50 has been recorded for this entry: CC(C)C(NC(=O)OCc1ccccc1)C(=O)N[C@@H](Cc1ccccc1)[C@@H](O)[C@@H](O)[C@H](Cc1ccccc1)NC(=O)c1ccccc1NC(=O)OCc1ccccn1 (stereo partly shown) [DN-14]
8.19

----------
test: Toxicity (IC50) in CEM cells, soluble formazan assay; conditions: human, cem cells
metricName: selectivity ratio

Can you share its selectivity ratio? I mean this molecule: CC(C)C(NC(=O)OCc1ccccc1)C(=O)N[C@@H](Cc1ccccc1)[C@@H](O)[C@@H](O)[C@H](Cc1ccccc1)NC(=O)c1ccccc1NC(=O)OCc1ccccn1 (stereo partly shown)
> 16700
